# Tested on: PRMT1 (protein arginine N-methyltransferase 1)
# procedureDetails: PRMT1 binders on small-molecule microarrays, primary screen, biochemical, small-molecule microarray, 635 nm fluorescence (AID 1088);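 also: binding of Prmt1 protein to compounds spotted on small-molecule microarray slides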
# statedConditions: small-molecule microarray binding, higher = more signal
Answer each item with its documented composite z-score.

What does the data say about its composite z-score? Entry: C=C(CCCC)C(=O)CC[C@H](OC(C)=O)c1ccccc1OCCO
1.19

What does the data say about its composite z-score? Entry: CCCC=C(CCC)[C@@H](NC(=O)c1ccccc1)c1ccc(C(=O)OC)cc1
0.661

What does the data say about its composite z-score? Entry: NC(=O)NCC#Cc1ccc2c(c1)[C@]1(C(=O)N2)[C@H](C(=O)N2CCCCCCC2)[C@H]2C(=O)O[C@H](c3ccccc3)[C@H](c3ccccc3)N2[C@@H]1c1ccc(O)cc1
1.55

What does the data say about its composite z-score? Entry: O=C1OCCC=C[C@H]2OC34C=CCN(CCN5CCOCC5)C(=O)[C@H]3N(CCCO)C(=O)[C@@H]4C12 (stereo partly drawn)
0.0132

What does the data say about its composite z-score? Entry: COC(=O)c1c(CC[C@@H](CO)NC(=O)N[C@@H](Cc2ccccc2)Cn2cc(-c3cncn3C)nn2)oc(C(C)=O)c1C(=O)OC
1.51

What does the data say about its composite z-score? Entry: CCCCN1CC=CC23O[C@@H]4C=CCOC(=O)[C@@H]4[C@H]2C(=O)N(C(CO)C(C)C)[C@@H]3C1=O (stereo partly drawn)
-0.453

What does the data say about its composite z-score? Entry: COC(=O)[C@@]1(Cc2ccc(F)cc2)[C@H]2c3cc(C(=O)N4CCCC4)n(CCO)c3C[C@H]2CN1C(=O)c1ccccc1
-1.09

What does the data say about its composite z-score? Entry: COCCOC(=O)N1C(=O)[C@@]2(c3cc(C#CC4=CCCCC4)ccc31)[C@H](c1ccccc1OCCO)N1[C@H](c3ccccc3)[C@H](c3ccccc3)OC(=O)[C@H]1[C@@H]2C(N)=O
1.56

====

# procedureDetails: P. aeruginosa biofilm formation inhibitors, primary screen, strain PAO1, LB-PBS medium, absorbance 600 nm (AID 1176); also: test concentration not given here
# statedConditions: P. aeruginosa PAO1 growth/biofilm, A600, 12 h; higher = more signal
The source made the active and inactive calls. How the calls were made is not given here.
Answer each item with its documented z-score.

What does the data say about its z-score? Entry: CCCC[C@@H]1C[C@H]1[C@@H](NC(=O)Cc1ccccc1)c1ccc(Cl)cc1
0.33 (inactive)

What does the data say about its z-score? Entry: COC(=O)[C@@]1(Cc2ccc(F)cc2)[C@H]2c3cc(C(=O)N4CCCC4)n(CCO)c3C[C@H]2CN1C(=O)c1ccccc1
-0.278 (inactive)

What does the data say about its z-score? Entry: COc1ccccc1CN1C(=O)c2ccccc2[C@](Cc2ccccc2I)(C(=O)NCCCN(C)C)[C@@H]1c1ccc(CO)cc1
1.57 (inactive)

What does the data say about its z-score? Entry: COC(=O)[C@@]1(Cc2ccc(OC)cc2)[C@H]2c3cc(C(=O)N4CCCC4)n(CCc4ccc(OC)c(Br)c4)c3C[C@H]2CN1C(=O)c1ccccc1
0.0539 (inactive)

====

Answer each item with its documented z-score.
# procedureDetails: mitochondrial membrane potential change in A549 cells, profiling panel, cell-based, JC-1 fluorescence, basal, 24 h, 100 nL (AID 1138);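 also: A549 lung adenocarcinoma cells under basal conditions with no added stimulus; test concentration not given here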
# statedConditions: higher = more signal
Returns: the value as a bare number; no unit string appended.

What does the data say about its z-score? Entry: O=C1O[C@@H](c2ccccc2)[C@@H](c2ccccc2)N2[C@@H](c3ccc(O)cc3)[C@]3(C(=O)Nc4ccc(C#CC5=CCCCC5)cc43)[C@@H](C(=O)N3CCCCCCC3)[C@H]12
1.26

What does the data say about its z-score? Entry: C#CCN=C(N)N
-0.317

What does the data say about its z-score? Entry: CC(C)C[C@@H]1NC(=O)[C@@]23C(=O)N[C@@H](Cc4ccccc4)C2[C@H](C)[C@@]2(C)O[C@H]2C3/C=C/C/C=C\CNC(=O)[C@@H](CC(C)C)NC1=O (stereo partly drawn)
0.102

What does the data say about its z-score? Entry: C=C(COC)/C(=C/C[C@H](OC(=O)c1ccncc1)c1ccc(OCCO)cc1)c1cc(C(=O)OC)ccc1OC
-0.408

What does the data say about its z-score? Entry: CCCCCCCCCCC(O)C1C=CC2C(=O)N(C)C(=O)C2N1N1CCCCC1 (stereo not drawn)
0.44

What does the data say about its z-score? Entry: CCCC=C(CCC)[C@@H](NC(=O)c1ccco1)c1ccc(C(=O)OC)cc1
-1.67

What does the data say about its z-score? Entry: O=C1c2ccccc2[C@@]2(Cc3ccccc3N(Cc3ccccc3)C2=O)[C@H](c2ccc(CO)cc2)N1Cc1ccccc1
0.0926

What does the data say about its z-score? Entry: CCOC(=O)C[C@H]1[C@H](OC(=O)c2ccc(-c3ccccc3)cc2)[C@@H](NC(=O)c2ccc3ccccc3c2)c2cc(OCCCO)ccc2N1C(=O)c1ccccc1
0.257

====

# targetOrTestSystem: NADPH oxidase 4 (Homo sapiens)
# procedureDetails: NOX4-dependent H2O2 signal modulators, primary screen, NOX inhibitor project, cell-based, HEK293-NOX4, tetracycline-induced, Amplex Red fluorescence (AID 1160)
# statedConditions: 45 min, higher = more signal, called active from +8 up or from −8 down
// label = Condition met if z-score is not less than -0.6, otherwise Condition not met

Does the reported z-score for CC#CCO[Si](C#CCCCCCC)(C(C)C)C(C)C fall at or above the -0.6 mark?
Condition not met

Does the reported z-score for COC(=O)[C@@]1(Cc2ccc(F)cc2)[C@H]2c3cc(C(=O)N4CCCC4)n(CCO)c3C[C@H]2CN1C(=O)c1ccccc1 fall at or above the -0.6 mark?
Condition met

Does the reported z-score for COc1ccc(CCNC(=O)[C@@H]2c3ccccc3C(=O)N(CC34CC5CC(CC(C5)C3)C4)[C@H]2c2ccc(CO)cc2)cc1 fall at or above the -0.6 mark?
Condition not met

Does the reported z-score for CC(C)CNC(=O)[C@@H]1c2ccccc2C(=O)N(Cc2ccccc2Cl)[C@H]1c1ccc(CO)cc1 fall at or above the -0.6 mark?
Condition met

Does the reported z-score for CCCCCN1CC=CC23O[C@@H]4C=CCOC(=O)[C@@H]4[C@H]2C(=O)N(CCCCCO)[C@@H]3C1=O (stereo partly specified) fall at or above the -0.6 mark?
Condition met

Does the reported z-score for CN(C)CCCNC(=O)[C@@H]1c2ccccc2C(=O)N(C2Cc3ccccc3C2)[C@H]1c1ccc(CO)cc1 fall at or above the -0.6 mark?
Condition met

Does the reported z-score for C/C=C/CN(C(=O)C#Cc1ccccc1)[C@H](CO[Si](C)(C)C(C)(C)C)c1ccccc1 fall at or above the -0.6 mark?
Condition met

Does the reported z-score for COc1ccc([Si](C)(C)[C@H]2[C@H](CC(=O)N3Cc4ccccc4C[C@H]3CO)O[C@@]3(C(=O)N(Cc4cccc(N5C(=O)c6cccc7cccc5c67)c4)c4ccccc43)[C@@H]2C)cc1 fall at or above the -0.6 mark?
Condition met

Does the reported z-score for [N-]=[N+]=NCc1ccccc1C[C@]1(C(=O)NCc2ccccc2)N=C(c2ccc(OCCCO)cc2)O[C@H]1c1ccccc1CN=[N+]=[N-] fall at or above the -0.6 mark?
Condition met

Does the reported z-score for CCCCCCc1nc(-c2ccc(OC)nc2)cc2c1[Si](C(C)C)(C(C)C)OC2 fall at or above the -0.6 mark?
Condition not met

Does the reported z-score for COc1cc2c(cc1O)C(c1ccc(CN3CCCC3)cc1)N(Cc1cccc(OC(F)(F)F)c1)CC2 (stereo unspecified) fall at or above the -0.6 mark?
Condition not met

Does the reported z-score for [N-]=[N+]=Nc1ccccc1[C@@H]1OC(c2ccc(OCCCO)cc2)=N[C@]1(Cc1ccccc1)C(N)=O fall at or above the -0.6 mark?
Condition met

Does the reported z-score for C=CCC(OC(C)=O)[C@@H]1[C@@H](N(Cc2ccc(-c3ccccc3)cc2)C(=O)c2ccc(C)cc2)c2cc(OCCCO)ccc2N1C(=O)c1ccc2ccccc2c1 (stereo partly specified) fall at or above the -0.6 mark?
Condition met

Does the reported z-score for CCCCC=C[C@@H](NC(=O)c1ccc(C(F)(F)F)cc1)c1ccccc1 fall at or above the -0.6 mark?
Condition not met

====

# targetOrTestSystem: Epidermal growth factor receptor (Homo sapiens)
# procedureDetails: EGFR binders on small-molecule microarrays, primary screen, biochemical, small-molecule microarray, 635 nm fluorescence (AID 1104);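 also: score merges 667 nm emission intensity with spot signal to noise over triplicate slides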
# statedConditions: EGFR binding, higher = more signal
// label = met if composite z-score is not less than 0.4, otherwise not met

Does the reported composite z-score for CO[C@H]1O[C@H](CO)[C@@H](OC(=O)Nc2ccc3c(c2)OCO3)[C@@H]2OC(=O)[C@@H](Cc3ccccc3)C/C=C/C[C@H](Cc3ccccc3)C(=O)O[C@@H]12 fall at or above the 0.4 mark?
not met

Does the reported composite z-score for COCCOC(=O)N1C(=O)[C@@]2(c3cc(C#CCCO)ccc31)[C@H](C(=O)N1CCN(c3ncccn3)CC1)[C@H]1C(=O)O[C@H](c3ccccc3)[C@H](c3ccccc3)N1[C@@H]2c1ccc(O)cc1 fall at or above the 0.4 mark?
not met

Does the reported composite z-score for COc1ccc(CCNC(=O)[C@@]2(Sc3ccc(C)cc3)CC(=O)N(C(C)C)[C@@H]2c2ccc(CO)cc2)cc1 fall at or above the 0.4 mark?
not met

Does the reported composite z-score for NC(=O)N1C(=O)C2C(C1=O)C1C=C(CCCO)C2C(c2ccc(CN3CCCC3)cc2)N1Cc1cccc(OC(F)(F)F)c1 (stereo unspecified) fall at or above the 0.4 mark?
met

Does the reported composite z-score for O=C1C2C=CC(C(O)c3cccs3)N(Nc3ccccc3)C2C(=O)N1c1ccccc1 (stereo unspecified) fall at or above the 0.4 mark?
not met

Does the reported composite z-score for CCOC(=O)C[C@H]1[C@H](OC(=O)c2cc3ccccc3oc2=O)[C@@H](NC(=O)C2CCCCC2)c2cc(OCCCO)ccc2N1C(=O)Cc1ccc(OC)cc1 fall at or above the 0.4 mark?
not met

Where do these numbers come from? They come from PubChem BioAssay.
